Exercise: for every item that follows, state its recorded Bliss excess.
- Test system: COLO-684 (Endometrial Carcinoma);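 note: after 72 h of two-drug dosing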
- Test details: Bliss excess, mean over the matrix (fraction); higher = more synergy
Answers are plain numbers.

INSERT INTO measurements (compound, measured_on, observed) VALUES
  ('N#Cc1cnc(Nc2cc(NC[C@H]3CNCCO3)c(C(F)(F)F)cn2)cn1 [SRA737] + Nc1ccn([C@@H]2O[C@H](CO)[C@@H](O)C2(F)F)c(=O)n1 [Gemcitabine] (first compound max 10 µM, 7x7, partner max 0.3 µM)', 'COLO-684 (Endometrial Carcinoma)', -0.0824),
  ('Cc1nc(Nc2ncc(C(=O)Nc3c(C)cccc3Cl)s2)cc(N2CCN(CCO)CC2)n1 [Dasatinib] + CC(=O)Nc1cccc(-n2c(=O)n(C3CC3)c(=O)c3c(Nc4ccc(I)cc4F)n(C)c(=O)c(C)c32)c1 [Trametinib] (first compound max 2 µM, 7x7, partner max 1 µM)', 'COLO-684 (Endometrial Carcinoma)', -0.0482);

Problem: Test system COLO-684 (Endometrial Carcinoma); read-out Bliss excess; what value for CN(CCO)CC[C@H](CSc1ccccc1)Nc1ccc(S(=O)(=O)NC(=O)c2ccc(N3CCC([C@@H](O)c4ccccc4-c4ccc(Cl)cc4)CC3)cc2)cc1S(=O)(=O)C(F)(F)F [AZD4320] + C[C@@H]1COCCN1C2=NC(=NC(=C2)C3(CC3)[S@](=N)(=O)C)C4=C5C=CNC5=NC=C4 [AZD6738] (first compound max 1 µM, 7x7, partner max 10 µM) ?;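 note: after 72 h of two-drug dosing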
Result: -0.0589
